# reported MALAT1 nuclear FISH intensity; entries follow
Tested on: HeLa;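 note: High-content confocal imaging of branched-DNA amplified FISH in 384-well plates, Hoechst-defined nuclei, score is well value minus plate DMSO median over DMSO robust SD, four wells per compound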
Experiment: MALAT1 nuclear FISH intensity, robust Z-score vs DMSO; higher = more nuclear MALAT1 lncRNA, active = -3 or less
Details: 10 µM; 6 h
Reply: number alone, nothing else.

* Clc1ccccc1C(c1ccccc1)(c1ccccc1)n1ccnc1 | -0.32

// sample Nc1cc(-c2ccncc2)c[nH]c1=O , its MALAT1 nuclear FISH intensity was -0.625

For reference, reported MALAT1 nuclear FISH intensity for CCCCCCCCCCCCCCCC(=O)O[C@@H]1[C@@H](O)[C@@H](O)[C@@H]([C@H](NC(=O)[C@@H]2C[C@@H](CCC)CN2C)[C@H](C)Cl)O[C@@H]1SC stands at -1.32

Memo: CC1(C)O[C@@H]2C[C@H]3[C@@H]4CCC5=CC(=O)C=C[C@]5(C)[C@H]4[C@@H](O)C[C@]3(C)[C@]2(C(=O)CO)O1 [Desonide] , reported MALAT1 nuclear FISH intensity: 1.25

For record CCOC(=O)C(C)(C)Oc1ccc(Cl)cc1 [Clofibrate] the listed MALAT1 nuclear FISH intensity is 0.229
